biological target: Biotinylated CoV2 Spike ECD PreS-AVI protein (SARS-CoV-2, UniProt P0DTC2 14-1208); experiment: Octet binning; competitor 1A11
Recorded binning response, one value per entry.
// response body must contain only the number

binder: 5D7 VHH-Fc (Fc fusion) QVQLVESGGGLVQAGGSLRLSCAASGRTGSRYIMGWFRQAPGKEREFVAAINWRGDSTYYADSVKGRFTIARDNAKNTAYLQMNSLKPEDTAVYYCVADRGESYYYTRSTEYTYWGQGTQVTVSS
reported_measurement: 0.12

Kindly consider the entry below.
In: What does the record list as binning response for 19E10 VHH-Fc (Fc fusion) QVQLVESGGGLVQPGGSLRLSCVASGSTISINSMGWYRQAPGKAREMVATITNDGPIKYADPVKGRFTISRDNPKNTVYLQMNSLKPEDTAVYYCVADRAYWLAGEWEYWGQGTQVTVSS ?
Out: 0.08

Just for reference, patent US20250382355A1 is where these values come from.
